Biological target: Shiga toxin 2 (Escherichia coli O157:H7) (UniProt P09385+P09386)
Assay: E. coli 0.157:H7 Shiga Toxin SOP - stx2 screening assay
Type: functional
Set-up: scale not given: direction of the effect not stated beside the values
Settings: 30 µM
endpoint-name: Percent Effect (%)
Return type: number; implicit unit %.

Ask: Requested field: Percent Effect. Item: `O=c1c2ccccc2nc2n1CCN(Cc1cccs1)CC2`
Reply: 12

Ask: Which Percent Effect reading was recorded for the compound `O=C([C@H]1C[C@H]2OCC[C@H]2N(Cc2ccncc2)C1)N1CCCCO1` ?
Reply: -11.8

Ask: Record request: Percent Effect value, item COc1ccc(NC(C)C(=O)NCCc2cccs2)cc1F (stereo unspecified)
Reply: -24.3

Origin of measurements: ChEMBL document CHEMBL3988442
